Test system: Caco-2 monolayers
Assay: in vitro
Conditions: human, Caco-2
*1 amine or outer side, *2 acyl side, *3 side chain or, on linkers, in order; H or OH if unused. Where a SMILES comes first, the peptide text is derived from it. [ ]: non-standard residue; d: D form. X3 = C#CCOc1ccc([C@@H](OC)[C@H](N[*:1])C(=O)[*:2])cc1; X4 = C=CCO[C@H](c1ccccc1)[C@H](N[*:1])C(=O)[*:2]; NMeLeu(5-OH,4R) = CN[C@@H](C[C@@H](C)CO)C(=O)O; Trp(1-Me) = Cn1cc(C[C@H](N)C(=O)O)c2ccccc21; NMeL = CN[C@@H](CC(C)C)C(=O)O
For each of the compounds below, state its Caco-2 Int. Perm.
# respond with the number and nothing more

The reported Caco-2 Int. Perm value, Caco-2 monolayers, for C=CCO[C@H](c1ccccc1)[C@@H]1NC(=O)[C@H](C)NC(=O)[C@H](C[C@@H](C)CO)N(C)C(=O)[C@H](Cc2cn(C)c3ccccc23)NC(=O)[C@H](C(C)C)NC(=O)[C@H](CC(C)C)N(C)C(=O)[C@H](C(C)C)NC1=O [Compound 14] (cyclo(A[X4]V[NMeL]V[Trp(1-Me)][NMeLeu(5-OH,4R)])) reads 21.7

// compound C#CCOc1ccc([C@@H](OC)[C@@H]2NC(=O)[C@H](C)NC(=O)[C@H](C[C@@H](C)CO)N(C)C(=O)[C@H](Cc3cn(C)c4ccccc34)NC(=O)[C@H](C(C)C)NC(=O)[C@H](CC(C)C)N(C)C(=O)[C@H](C(C)C)NC2=O)cc1 [SI-38] (cyclo(A[X3]V[NMeL]V[Trp(1-Me)][NMeLeu(5-OH,4R)])) , assay Caco-2 monolayers, Caco-2 Int. Perm value: 9.1

Lab entry: Caco-2 monolayers assay, compound CO[C@H](c1ccccc1)[C@@H]1NC(=O)[C@H](C)NC(=O)[C@H](C[C@@H](C)CO)N(C)C(=O)[C@H](Cc2cn(Cc3cn(CCCCCn4cc(Cn5cc(C[C@@H]6NC(=O)[C@H](C(C)C)NC(=O)[C@H](CC(C)C)N(C)C(=O)[C@H](C(C)C)NC(=O)[C@H]([C@H](OC)c7ccccc7)NC(=O)[C@H](C)NC(=O)[C@H](C[C@@H](C)CO)N(C)C6=O)c6ccccc65)nn4)nn3)c3ccccc23)NC(=O)[C@H](C(C)C)NC(=O)[C@H](CC(C)C)N(C)C(=O)[C@H](C(C)C)NC1=O [Compound 9] , Caco-2 Int. Perm = 0.1

----------
Assay: in vivo
Assay type: in vivo, BALB/cAnNCrl mice
Settings: male, BALB/cAnNCrl, mouse, in vivo, po, […], oral gavage, individual animals 1-3
*1 amine or outer side, *2 acyl side, *3 side chain or, on linkers, in order; H or OH if unused. Where a SMILES comes first, the peptide text is derived from it. [ ]: non-standard residue; d: D form. X1 = C#CCn1cc(C[C@H](N[*:1])C(=O)[*:2])c2ccccc21; NMeLeu(5-OH,4R) = CN[C@@H](C[C@@H](C)CO)C(=O)O; Phe(βR-OMe) = CO[C@H](c1ccccc1)[C@H](N)C(=O)O; NMeL = CN[C@@H](CC(C)C)C(=O)O
quantity kind: half-life (min)
# output: bare number, implied unit min

Reported half-life of C#CCn1cc(C[C@@H]2NC(=O)[C@H](C(C)C)NC(=O)[C@H](CC(C)C)N(C)C(=O)[C@H](C(C)C)NC(=O)[C@H]([C@H](OC)c3ccccc3)NC(=O)[C@H](C)NC(=O)[C@H](C[C@@H](C)CO)N(C)C2=O)c2ccccc21 [Compound 5] (cyclo(A[Phe(βR-OMe)]V[NMeL]V[X1][NMeLeu(5-OH,4R)])) : 36.5
